MEASURED_ON: CDK4 (Homo sapiens, UniProt P11802)
Construct: endogenous in cells; host or cells: Calu-1
Sequence (P11802 2-303 limits assumed): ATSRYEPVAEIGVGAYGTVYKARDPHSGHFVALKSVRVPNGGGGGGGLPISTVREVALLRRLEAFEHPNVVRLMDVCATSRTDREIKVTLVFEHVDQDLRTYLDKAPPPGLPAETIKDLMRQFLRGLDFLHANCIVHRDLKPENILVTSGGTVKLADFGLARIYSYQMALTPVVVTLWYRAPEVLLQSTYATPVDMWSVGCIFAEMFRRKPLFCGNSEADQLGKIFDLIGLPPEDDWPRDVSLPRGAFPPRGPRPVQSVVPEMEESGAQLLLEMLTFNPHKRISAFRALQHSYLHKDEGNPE
Sequence (P24385 whole entry partner): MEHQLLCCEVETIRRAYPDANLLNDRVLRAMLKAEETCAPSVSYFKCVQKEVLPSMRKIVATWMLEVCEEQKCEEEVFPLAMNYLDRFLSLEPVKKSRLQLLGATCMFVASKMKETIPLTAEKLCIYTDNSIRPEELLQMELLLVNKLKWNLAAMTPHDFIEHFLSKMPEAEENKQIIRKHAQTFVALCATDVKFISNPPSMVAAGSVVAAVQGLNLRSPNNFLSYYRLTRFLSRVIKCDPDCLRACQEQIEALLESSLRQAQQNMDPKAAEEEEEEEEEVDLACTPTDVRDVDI
Sequence (Q16531 2-1140 limits assumed, further chain): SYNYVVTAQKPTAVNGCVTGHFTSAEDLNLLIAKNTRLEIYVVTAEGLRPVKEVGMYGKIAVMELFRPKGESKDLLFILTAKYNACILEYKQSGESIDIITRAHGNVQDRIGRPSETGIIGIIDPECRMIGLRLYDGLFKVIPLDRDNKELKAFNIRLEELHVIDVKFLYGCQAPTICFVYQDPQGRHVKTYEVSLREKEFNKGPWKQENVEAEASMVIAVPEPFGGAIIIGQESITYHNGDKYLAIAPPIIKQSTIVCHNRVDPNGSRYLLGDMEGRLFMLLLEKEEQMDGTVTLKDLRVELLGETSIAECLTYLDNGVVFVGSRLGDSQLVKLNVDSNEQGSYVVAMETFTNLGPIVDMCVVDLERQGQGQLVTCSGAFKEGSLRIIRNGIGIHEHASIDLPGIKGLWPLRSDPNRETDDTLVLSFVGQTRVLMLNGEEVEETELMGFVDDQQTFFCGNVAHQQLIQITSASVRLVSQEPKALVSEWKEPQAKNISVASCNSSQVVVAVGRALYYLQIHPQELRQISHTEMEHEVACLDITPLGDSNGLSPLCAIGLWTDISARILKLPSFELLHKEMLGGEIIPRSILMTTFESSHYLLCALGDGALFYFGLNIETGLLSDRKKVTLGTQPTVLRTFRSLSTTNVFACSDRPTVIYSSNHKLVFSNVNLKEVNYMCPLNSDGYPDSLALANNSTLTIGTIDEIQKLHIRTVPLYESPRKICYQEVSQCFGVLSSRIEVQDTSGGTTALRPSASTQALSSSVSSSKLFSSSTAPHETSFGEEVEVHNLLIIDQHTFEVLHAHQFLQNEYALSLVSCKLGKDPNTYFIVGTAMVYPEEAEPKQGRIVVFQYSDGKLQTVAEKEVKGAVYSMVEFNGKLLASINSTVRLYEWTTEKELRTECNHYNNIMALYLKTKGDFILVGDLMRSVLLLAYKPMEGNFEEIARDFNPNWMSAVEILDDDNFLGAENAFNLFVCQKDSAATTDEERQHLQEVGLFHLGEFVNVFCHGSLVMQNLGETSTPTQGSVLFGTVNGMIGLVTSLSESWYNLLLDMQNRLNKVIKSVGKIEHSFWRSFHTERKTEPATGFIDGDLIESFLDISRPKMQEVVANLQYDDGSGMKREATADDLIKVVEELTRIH
EXPERIMENT_NOTES: CDK4 percentage degradation in Calu-1 cells (immunoblotting)
Assay type: cell-based
MEASUREMENT_CONDITIONS: Calu-1, 16 h, read-out: CDK4 Degradation (200 nM)
# inhibition at 0.2 µM per record follows

{"SMILES_INPUT": "CC(=O)c1c(C)c2cnc(Nc3ccc(N4CCN(CC(=O)NCCOCCOCCOCCOCCOCCNc5ccc(C(=O)Nc6ccccc6)c(C)c5)CC4)cn3)nc2n(C2CCCC2)c1=O", "MEASURED_ON": "CDK4 (Homo sapiens, UniProt P11802)", "inhibition at 0.2 µM": "< 30%"}

// fetch CDK4 (Homo sapiens, UniProt P11802) inhibition at 0.2 µM for `CC(=O)c1c(C)c2cnc(Nc3ccc(N4CCN(C(=O)CCOCCOCCNc5ccc(C)c(C(=O)Nc6nc(C)c(C)s6)c5)CC4)cn3)nc2n(C2CCCC2)c1=O` < 30%

Subsequent entry: `CC(=O)c1c(C)c2cnc(Nc3ccc(N4CCN(CCNCCOCCOCCNc5cccc(C(=O)Nc6nc(C)c(C)s6)c5C)CC4)cn3)nc2n(C2CCCC2)c1=O` < 30%

====

# inhibition at 0.2 µM per record follows
MEASURED_ON: CDK4 (Homo sapiens, UniProt P11802)
Construct: endogenous in cells; host or cells: Calu-1
EXPERIMENT_NOTES: CDK4 percentage degradation in Calu-1 cells (immunoblotting)
Type: cell-based
MEASUREMENT_CONDITIONS: Calu-1 cells, 200 nM, 16 hours; read-out: CDK4 Degradation (200 nM)

Consider the following illustrative entries.
{"SMILES_INPUT": "CC(=O)c1c(C)c2cnc(Nc3ccc(N4CCN(CC(=O)NCCOCCOCCC(=O)Nc5ccccc5C(=O)Nc5ccc(C#N)nn5)CC4)cn3)nc2n(C2CCCC2)c1=O", "MEASURED_ON": "CDK4 (Homo sapiens, UniProt P11802)", "inhibition at 0.2 µM": "< 30%"}
{"SMILES_INPUT": "CC(=O)c1c(C)c2cnc(Nc3ccc(N4CCN(C(=O)CCOCCOCCNc5cccc(C(=O)Nc6nc(C)c(C)s6)c5C)CC4)cn3)nc2n(C2CCCC2)c1=O", "MEASURED_ON": "CDK4 (Homo sapiens, UniProt P11802)", "inhibition at 0.2 µM": "30 to 50%"}

GET /values?readout=inhibition at 0.2 µM&item= `CC(=O)c1c(C)c2cnc(Nc3ccc(N4CCN(CC(=O)NCCCCCCCCC(=O)Nc5ccccc5C(=O)Nc5nc(C)c(C)s5)CC4)cn3)nc2n(C2CCCC2)c1=O` 50 to 80%

Subsequent entry: `CC(=O)c1c(C)c2cnc(Nc3ccc(N4CCN(CC(=O)NCCOCCOCCC(=O)Nc5ccc(C)cc5C(=O)Nc5nc(C)c(C)s5)CC4)cn3)nc2n(C2CCCC2)c1=O` 50 to 80%

Subsequent entry: `CC(=O)c1c(C)c2cnc(Nc3ccc(N4CCN(CC(=O)NCCOCCOCCOCCOCCOCCNC(=O)c5ccc(C(=O)Nc6ncc(C)s6)c(C)c5)CC4)cn3)nc2n(C2CCCC2)c1=O` < 30%

====

MEASURED_ON: CDK4 (Homo sapiens)
Construct: endogenous in cells; host or cells: Calu-1
EXPERIMENT_NOTES: CDK4 percentage degradation in Calu-1 cells (immunoblotting)
Format: cell-based
MEASUREMENT_CONDITIONS: Calu-1 cells, 200 nM, 16 hours; read-out: CDK4 Degradation (200 nM)
# inhibition at 0.2 µM per record follows

Consider the following illustrative entries.
{"COMPOUND": "CC(=O)c1c(C)c2cnc(Nc3ccc(N4CCN(CC(=O)NCCCCCCNc5ccc(C)c(C(=O)Nc6nc(C)c(C)s6)c5)CC4)cn3)nc2n(C2CCCC2)c1=O [CPD-094]", "inhibition at 0.2 µM": "< 30%"}
{"COMPOUND": "CC(=O)c1c(C)c2cnc(Nc3ccc(N4CCN(CC(=O)NCCCCCCCNc5cc(C)ccc5C(=O)Nc5nc(C)c(C)s5)CC4)cn3)nc2n(C2CCCC2)c1=O [CPD-368]", "inhibition at 0.2 µM": "> 80%"}
{"COMPOUND": "CC(=O)c1c(C)c2cnc(Nc3ccc(N4CCN(CC(=O)NCCOCCOCCNc5cccc(C(=O)Nc6nc(C)c(C)s6)c5C)CC4)cn3)nc2n(C2CCCC2)c1=O [CPD-104]", "inhibition at 0.2 µM": "30 to 50%"}
{"COMPOUND": "CC(=O)c1c(C)c2cnc(Nc3ccc(N4CCN(CC(=O)NCCOCCOCCOCCOCCNC(=O)c5ccc(C(=O)Nc6ncc(C)s6)c(C)c5)CC4)cn3)nc2n(C2CCCC2)c1=O [CPD-012]", "inhibition at 0.2 µM": "< 30%"}
{"COMPOUND": "CC(=O)c1c(C)c2cnc(Nc3ccc(N4CCN(CC(=O)NCCOCCOCCOCCNC(=O)CNc5ccc(C(=O)Nc6ncc(C)s6)c(C)c5)CC4)cn3)nc2n(C2CCCC2)c1=O [CPD-018]", "inhibition at 0.2 µM": "30 to 50%"}
{"COMPOUND": "CC(=O)c1c(C)c2cnc(Nc3ccc(N4CCN(CC(=O)NCCOCCC(=O)Nc5ccccc5C(=O)Nc5nc(C)c(C)s5)CC4)cn3)nc2n(C2CCCC2)c1=O [CPD-147]", "inhibition at 0.2 µM": "< 30%"}
{"COMPOUND": "CC(=O)c1c(C)c2cnc(Nc3ccc(N4CCN(CC(=O)NCCOCCOCCC(=O)Nc5ccccc5C(=O)Nc5nnc(C)s5)CC4)cn3)nc2n(C2CCCC2)c1=O [CPD-367]", "inhibition at 0.2 µM": "< 30%"}
{"COMPOUND": "COc1ccc(NC(=O)c2ccccc2NC(=O)CCOCCN2CCC(NC(=O)CN3CCN(c4ccc(Nc5ncc6c(C)c(C(C)=O)c(=O)n(C7CCCC7)c6n5)nc4)CC3)CC2)nn1 [CPD-348]", "inhibition at 0.2 µM": "< 30%"}

GET /values?readout=inhibition at 0.2 µM&item= CC(=O)c1c(C)c2cnc(Nc3ccc(N4CCN(CC(=O)NCCOCCOCCOCCOCCOCCNc5ccc(C(=O)Nc6ncc(C(C)C)s6)c(C)c5)CC4)cn3)nc2n(C2CCCC2)c1=O [CPD-006] < 30%

Subsequent entry: CC(=O)c1c(C)c2cnc(Nc3ccc(N4CCN(CC(=O)NCCOCCOCCC(=O)Nc5ccccc5C(=O)Nc5ccc(C)nn5)CC4)cn3)nc2n(C2CCCC2)c1=O [CPD-056] 50 to 80%

Subsequent entry: CC(=O)c1c(C)c2cnc(Nc3ccc(N4CCN(CC(=O)NCCOCCOCCC(=O)Nc5ccccc5C(=O)Nc5ccccn5)CC4)cn3)nc2n(C2CCCC2)c1=O [CPD-053] 50 to 80%

Subsequent entry: CC(=O)c1c(C)c2cnc(Nc3ccc(N4CCN(CC(=O)NCCOCCOCCC(=O)Nc5ccccc5C(=O)Nc5nc(C)c(C)s5)CC4)cn3)nc2n(C2CCCC2)c1=O [CPD-115] > 80%

Subsequent entry: CC(=O)c1c(C)c2cnc(Nc3ccc(N4CCN(CC(=O)NCCOCCOCCOCCOCCOCCNc5ccc(C(=O)Nc6ncc(Cl)s6)c(C)c5)CC4)cn3)nc2n(C2CCCC2)c1=O [CPD-005] < 30%

Subsequent entry: CC(=O)c1c(C)c2cnc(Nc3ccc(N4CCN(CC(=O)NCCCCCCNc5cccc(C(=O)Nc6nc(C)c(C)s6)c5C)CC4)cn3)nc2n(C2CCCC2)c1=O [CPD-101] 50 to 80%

Subsequent entry: CC(=O)c1c(C)c2cnc(Nc3ccc(N4CCN(CC(=O)NCCOCCOCCC(=O)Nc5ccccc5C(=O)Nc5cc(C(F)(F)F)n(C)n5)CC4)cn3)nc2n(C2CCCC2)c1=O [CPD-069] < 30%

Subsequent entry: CNC(=O)c1ccc(C)nc1NCCCCCCCNC(=O)CN1CCN(c2ccc(Nc3ncc4c(C)c(C(C)=O)c(=O)n(C5CCCC5)c4n3)nc2)CC1 [CPD-340] < 30%

====

MEASURED_ON: CDK4 (Homo sapiens)
Construct: endogenous in cells; host or cells: Calu-1
EXPERIMENT_NOTES: CDK4 percentage degradation in Calu-1 cells (immunoblotting)
Type: cell-based
MEASUREMENT_CONDITIONS: Calu-1 cells, 200 nM, 16 hours; read-out: CDK4 Degradation (200 nM)
MEASUREMENT_NAME: inhibition at 0.2 µM

Consider the following illustrative entries.
{"MOLECULE": "CC(=O)c1c(C)c2cnc(Nc3ccc(N4CCN(CC(=O)NCCOCCOCCOCCOCCOCCNc5ccc(C(=O)Nc6nc(-c7ccccc7)cs6)c(C)c5)CC4)cn3)nc2n(C2CCCC2)c1=O [CPD-007]", "inhibition at 0.2 µM": "< 30%"}
{"MOLECULE": "CC(=O)c1c(C)c2cnc(Nc3ccc(N4CCN(CC(=O)NCCOCCOCCNC(=O)c5ccc(C(=O)Nc6ncc(C)s6)c(C)c5)CC4)cn3)nc2n(C2CCCC2)c1=O [CPD-010]", "inhibition at 0.2 µM": "< 30%"}
{"MOLECULE": "CC(=O)c1c(C)c2cnc(Nc3ccc(N4CCN(CC(=O)NCCOCCOCCC(=O)Nc5ccc(Br)cc5C(=O)Nc5nc(C)c(C)s5)CC4)cn3)nc2n(C2CCCC2)c1=O [CPD-145]", "inhibition at 0.2 µM": "< 30%"}
{"MOLECULE": "CC(=O)c1c(C)c2cnc(Nc3ccc(N4CCN(CC(=O)NCCCCCCCNc5cccc(C(=O)Nc6cc(C)n(C)n6)c5C)CC4)cn3)nc2n(C2CCCC2)c1=O [CPD-329]", "inhibition at 0.2 µM": "> 80%"}
{"MOLECULE": "CNc1ccc(C(=O)Nc2nc(C)c(C)s2)c(NC(=O)CCOCCOCCNC(=O)CN2CCN(c3ccc(Nc4ncc5c(C)c(C(C)=O)c(=O)n(C6CCCC6)c5n4)nc3)CC2)c1 [CPD-164]", "inhibition at 0.2 µM": "50 to 80%"}

// fetch CDK4 (Homo sapiens) inhibition at 0.2 µM for CC(=O)c1c(C)c2cnc(Nc3ccc(N4CCN(C(=O)CCCCCCNc5ccc(C)c(C(=O)Nc6nc(C)c(C)s6)c5)CC4)cn3)nc2n(C2CCCC2)c1=O [CPD-109] < 30%

Subsequent entry: CC(=O)c1c(C)c2cnc(Nc3ccc(N4CCN(CC(=O)NCCOCCOCCC(=O)Nc5c(C(=O)Nc6ccc(C)cn6)ccc6ncccc56)CC4)cn3)nc2n(C2CCCC2)c1=O [CPD-362] < 30%

Subsequent entry: CC(=O)c1c(C)c2cnc(Nc3ccc(N4CCN(CC(=O)NCCCCCCCC(=O)Nc5ccccc5C(=O)Nc5nc(C)c(C)s5)CC4)cn3)nc2n(C2CCCC2)c1=O [CPD-136] 50 to 80%

Subsequent entry: CC(=O)c1c(C)c2cnc(Nc3ccc(N4CCN(CC(=O)NCCOCCOCCOCCOCCOCCNc5ccc(C(=O)Nc6ncc(F)s6)c(C)c5)CC4)cn3)nc2n(C2CCCC2)c1=O [CPD-028] < 30%

Subsequent entry: CC(=O)c1c(C)c2cnc(Nc3ccc(N4CCN(CC(=O)NCCCCCCCNC(=O)COc5ccc(C(=O)Nc6ncc(C)s6)c(C)c5)CC4)cn3)nc2n(C2CCCC2)c1=O [CPD-037] < 30%

Subsequent entry: CC(=O)c1c(C)c2cnc(Nc3ccc(N4CCN(CC(=O)NCCCCCCCCCNC(=O)c5ccc(C(=O)Nc6ncc(C)s6)c(C)c5)CC4)cn3)nc2n(C2CCCC2)c1=O [CPD-024] < 30%

Subsequent entry: CNc1ccc(C(=O)Nc2ccc(C)c(C3CC3)n2)c(NCCCCCNC(=O)CN2CCN(c3ccc(Nc4ncc5c(C)c(C(C)=O)c(=O)n(C6CCCC6)c5n4)nc3)CC2)c1 [CPD-371] 50 to 80%
